system.name: EBOV GP ectodomain residues 1-636 (GPec) (Zaire ebolavirus, strain  …, UniProt Q05320)
parameter: binding result

# binder, measured
measured = [
    ("5.6.c4013 (antibody, V domains shown) VH: EVQLVESGGDLVQPGGSLRLSCAASGFTVNANYLGWVRQTPGKGLEWVSLIYSGSGSTYYADSVKGRFTLSRDSSKNTLFLHMNSLRPEDTAVYYCARAGGVVVTAIRTTFDYWGRGTLVTVSS VL: DIQMTQSPSTLSASVGDRVTITCRASQSISRWLAWYQQKPGKAPKLLIYRASSLQNGVPSRFSGSGSGTEFTLTISGLQPDDFGIYYCQEYSSRYTFGQGTQLEIK", "binds"),
    ("5.6.c3197 (antibody, V domains shown) VH: QVQVVESGGGVVQPGKSLRLSCAASGFTFSSYGMHWVRQAPGKGLEWVAFIAYDGSNEYYADSVKGRFTISRDNSKITLYLQMNSLRAEDTAMYYCAKEGAGHDALYYYGMDVWGQGTTVTVSS VL: DIQMTQSPSSVSASVGDRVTITCRASQGISFWLAWYQQKPGKAPELLISAASSLQSGVPSRFSGSGSGTDFTLTISSLQPEDFATYYCLQAHSFPYTFGQGTKLEIK", "binds"),
    ("5.6.c3236 (antibody, V domains shown) VH: QVQLLESGPGLVKPSETLSLTCAVSGGSVSSNTHFWSWIRQPPGKGLEWIGYTLSSGSTAYNPSLKSRVSLSVDTSKNHFSLKLTSVTAADTAVYYCAGTVIQGVVSFDWFDPWGQGTLVTVSS VL: DIQMTQSPSSLSASVGDRVTITCRASQSINSYLNWYQQRPGKAPKLLIYTTSNLQSGVPSRFSGSGSGTDFTLTISSLQPEDFATYYCQQSYSTPLTFGGGTKVEIK", "binds"),
]
